Origin of the recorded values: patent US8309552B2

Catalogue of compounds with associated EC50
Molecular target: CD80-CD28 interaction (Homo sapiens)
Sequence (P33681 35-242 limits assumed): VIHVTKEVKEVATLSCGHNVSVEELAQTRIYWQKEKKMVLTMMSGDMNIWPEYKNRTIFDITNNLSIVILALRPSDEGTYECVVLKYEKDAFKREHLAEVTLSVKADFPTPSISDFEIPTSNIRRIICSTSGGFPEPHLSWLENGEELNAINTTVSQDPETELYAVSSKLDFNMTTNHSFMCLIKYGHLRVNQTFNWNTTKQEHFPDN
Assay: Homogenous Time Resolved Fluorescence (HTRF) assay, cell free
Format: binding
Settings: cell-free HTRF, compound concentration series 100 μM-1.7 nM, 4 hours at room temperature; read-out: Activity (EC50 in the HTRF assay)

Identify measured EC50 corresponding to CC(C)CCC(C)NC(=O)Nc1ccc(-n2[nH]c3c(nnc4ccccc43)c2=O)cc1 (centres unmarked) [Example 218] > 10 µM

Retrieve EC50 measured for O=C(NCCCc1ccccc1)c1ccc(-n2[nH]c3c(nnc4ccccc43)c2=O)cc1 [Example 41] and print it. 1 to 10 µM

# return recorded EC50 for entry O=C(Nc1ccc(-n2[nH]c3c(nnc4ccccc43)c2=O)cc1)NC1CCCC1OCc1ccccc1 (centres unmarked) [Example 211] > 10 µM

Let me know recorded EC50 for COC(=O)C(NC(=O)c1ccc(-n2[nH]c3c(nnc4ccccc43)c2=O)cc1)C(C)C (centres unmarked) [Example 93] , thanks. 1 to 10 µM

For the compound CCOC(=O)CCNC(=O)c1ccc(-n2[nH]c3c(nnc4ccccc43)c2=O)cc1 [Example 116] , give its measured EC50 value. > 10 µM

Answer with the recorded EC50 of CCOC(=O)N1CCC(NC(=O)c2ccc(-n3[nH]c4c(nnc5ccccc54)c3=O)cc2)CC1 [Example 104] only. 1 to 10 µM

Consider the compound CCC(C)CNC(=O)c1ccc(-n2[nH]c3c(nnc4ccccc43)c2=O)cc1 (centres unmarked) [Example 107] . State its measured EC50. 1 to 10 µM

###

Molecular target: CD80-CD28 interaction (Homo sapiens)
Experiment: Homogenous Time Resolved Fluorescence (HTRF) assay, cell free
Type: binding
Conditions: cell-free HTRF, concentration series 100 μM-1.7 nM, 4 hours at room temperature; read-out: Activity (EC50 in the HTRF assay)
Item-by-item account of EC50

Example results:
compound: CN1CCCN(C(=O)c2ccc(-n3[nH]c4c(nnc5c(F)cccc54)c3=O)cc2)CC1
EC50: < 1000 nM
//
compound: O=C(NC(CO)CO)c1ccc(-n2[nH]c3c(nnc4c(F)cccc43)c2=O)cc1
EC50: < 1000 nM
//
compound: CC1CN(CCCCNC(=O)c2ccc(-n3[nH]c4c(nnc5c(F)cccc54)c3=O)cc2)CC(C)O1 (stereo not shown)
EC50: < 1000 nM
//
compound: C=CCCN1CCC(NC(=O)c2ccc(-n3[nH]c4c(nnc5c(F)cccc54)c3=O)cc2)CC1
EC50: < 1000 nM
//
compound: C=CCN(CCCCNC(=O)c1ccc(-n2[nH]c3c(nnc4c(F)cccc43)c2=O)cc1)C1CCCC1
EC50: < 1000 nM

Supply EC50 value. Item: O=C(NC1CCN(CCCCF)CC1)c1ccc(-n2[nH]c3c(nnc4c(F)cccc43)c2=O)cc1 < 1000 nM

Complete the entry with EC50 for CC(C)(CO)NC(=O)c1ccc(-n2[nH]c3c(nnc4c(F)cccc43)c2=O)cc1 > 10000 nM

Give the reported value of EC50 for this record: NC(=O)CNC(=O)c1ccc(-n2[nH]c3c(nnc4c(F)cccc43)c2=O)cc1 < 1000 nM

Give reported EC50 value for O=C(N[C@@H](CO)[C@@H](O)c1ccccc1)c1ccc(-n2[nH]c3c(nnc4c(F)cccc43)c2=O)cc1 1000 to 10000 nM

# return recorded EC50 for entry O=C(NC1CCN(CC2CCCCC2)CC1)c1ccc(-n2[nH]c3c(nnc4c(F)cccc43)c2=O)cc1 < 1000 nM
